Taken from paper PMC7587356.

Molecular target: SARS-CoV-2 3CLpro (Severe acute respiratory syndrome coronavirus 2, UniProt P0DTD1)
Assay: biochemical
Assay type: biochemical
Conditions: 4 h, sheet LOPAC_screen_w_protease; LOPAC1280 primary screen with protease, 5 µM compound; mean of the two replicates; read-out: mean
Structures can show the parent of a compound that is named as a salt.
MEASURE NAME: inhibition at 5 µM
Kindly write the number and append the unit.

Observe how each entry below is paired with its result.
CCOC(=O)C1=C(C)NC(=S)NC1c1cccc(O)c1 (stereo not shown) [Monastrol]: 6.04%
C=CCN1CC[C@]23CCCC[C@H]2[C@H]1Cc1ccc(O)cc13 [Levallorphan tartrate]: 4.19%
COC(=O)Nc1nc2ccc(C(=O)c3cccs3)cc2[nH]1 [Nocodazole]: 4.68%

Could you now consider this next compound?
Inquiry: # query: inhibition at 5 µM of entry CCN(CC)CC#CCOC(=O)C(O)(c1ccccc1)C1CCCCC1 (stereo not shown) [Oxybutynin Chloride]
Reply text: 4.78%

====

Entries annotated with measured Replicate_2 (LOPAC_screen_w_protease)
Target: SARS-CoV-2 3CLpro (Severe acute respiratory syndrome coronavirus 2, UniProt P0DTD1)
Experiment: biochemical
Type: biochemical
Conditions: LOPAC1280 primary screen with protease, 5 µM compound, replicate 2
Simply state the number, no unit and no words.

CCNC(=O)[C@H]1O[C@@H](n2cnc3c(N)ncnc32)[C@H](O)[C@@H]1O: 2.055
N[C@@H](Cc1ccc(O)c(I)c1)C(=O)O: 2.037
CC(=O)NCCc1c[nH]c2ccc(O)cc12 [N-Acetyl-5-hydroxytryptamine]: 1.078
NC(C(=O)O)C(O)C(=O)O (racemic) [DL-threo-beta-hydroxyaspartic acid]: 1.804
CCC(=O)N1CCN(C(=O)c2ccccc2)CC1: 2.048

Inquiry: # query: Replicate_2 (LOPAC_screen_w_protease) of entry N#C/C(=C\c1ccc(O)c(O)c1)C(=O)NCCCNC(=O)/C(C#N)=C/c1ccc(O)c(O)c1
Reply text: 1.878

Inquiry: Then what about the compound Cc1ccc([N+](=O)[O-])cc1S(=O)(=O)N(C)C ?
Reply text: 2.268

Inquiry: Then what about the compound Cc1cn([C@H]2C=C[C@@H](CO)O2)c(=O)[nH]c1=O [2',3'-didehydro-3'-deoxythymidine] ?
Reply text: 1.738

====

Target: SARS-CoV-2 3CLpro (Severe acute respiratory syndrome coronavirus 2, UniProt P0DTD1)
Experiment: biochemical
Type: biochemical
Details: EC50 with Triton X-100 / EC50 without Triton X-100; ratio greater than 2 suggests aggregation-based inhibitor
MEASURE NAME: Ratio (A/B)
Simply state the number, no unit and no words.

Observe how each entry below is paired with its result.
N=C(N)NCCSSCCNC(=N)N [GED]: 1.6
CN=c1nc(-c2ccccc2)n(-c2ccccc2)s1 [SCH-202676]: 6.7
CC(C)(C)c1ccc(S(=O)(=O)/C=C/C#N)cc1 [Bay 11-7085, reference compound]: 2.0
C=CCN1CCc2cccc3c2[C@H]1Cc1ccc(O)c(O)c1-3 [R(−)-N-Allylnorapomorphine]: 0.9

Inquiry: For the record Br.CCCN1CCc2cc(O)cc3c2[C@H]1Cc1ccc(O)c(O)c1-3 [R(−)-2-OH-NPA] , what value of Ratio (A/B) is listed for SARS-CoV-2 3CLpro (Severe acute respiratory syndrome coronavirus 2, UniProt P0DTD1)?
Reply text: 1.0

Inquiry: Then what about the molecule NC(Cc1cc(O)c(O)cc1O)C(=O)O (racemic) [6-Hydroxy-dl-DOPA, reference compound] ?
Reply text: 2.0

Inquiry: Then what about the molecule COc1ccc2c(c1)CC[C@@H]1[C@@H]2CC[C@]2(C)[C@@H](NCCCCCCN3C(=O)C=CC3=O)CC[C@@H]12 [U-73122, reference compound] ?
Reply text: 2.0

Inquiry: Then what about the molecule Oc1ccc2c3c1O[C@H]1c4[nH]c5c(c4C[C@@]4(O)[C@@H](C2)N(CC2CC2)CC[C@]314)C[C@@]1(O)[C@H]2Cc3ccc(O)c4c3[C@@]1(CCN2CC1CC1)[C@H]5O4 [nor-Binaltorphimine] ?
Reply text: 2.0
